Molecular target: Histone deacetylase 8 (Homo sapiens)
Sequence (Q9BY41 whole entry): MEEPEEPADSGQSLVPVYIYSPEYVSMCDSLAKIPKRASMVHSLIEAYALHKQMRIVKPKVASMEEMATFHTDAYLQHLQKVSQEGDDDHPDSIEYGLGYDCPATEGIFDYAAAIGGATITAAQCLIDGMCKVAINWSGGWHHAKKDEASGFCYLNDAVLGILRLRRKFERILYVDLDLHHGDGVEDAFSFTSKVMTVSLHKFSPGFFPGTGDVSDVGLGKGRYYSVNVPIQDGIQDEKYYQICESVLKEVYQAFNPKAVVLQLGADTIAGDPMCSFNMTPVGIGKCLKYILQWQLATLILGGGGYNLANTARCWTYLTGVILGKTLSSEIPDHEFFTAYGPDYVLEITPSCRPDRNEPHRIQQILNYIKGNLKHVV
Experiment: Inhibition of recombinant full-length human HDAC8 using RHKK(Ac) as substrate measured after 2 hrs by fluorescence assay
Value Kind: IC50 (nM)

- O=C(/C=C/c1cccn(CCc2ccc3ccccc3c2)c1=O)NO: 1580

###

target: Histone deacetylase 1 (Homo sapiens); assay: Inhibition of recombinant full-length human HDAC1 using RHKK(Ac) as substrate measured after 2 hrs by fluorescence assay
Value Kind: IC50 (nM)

- O=C(/C=C/c1cccn(CCc2ccc3ccccc3c2)c1=O)NO: 154

###

target: Histone deacetylase 2 (Homo sapiens); experiment: biochemical; assay type: cell-based, HeLa
Sequence (Q92769 whole entry): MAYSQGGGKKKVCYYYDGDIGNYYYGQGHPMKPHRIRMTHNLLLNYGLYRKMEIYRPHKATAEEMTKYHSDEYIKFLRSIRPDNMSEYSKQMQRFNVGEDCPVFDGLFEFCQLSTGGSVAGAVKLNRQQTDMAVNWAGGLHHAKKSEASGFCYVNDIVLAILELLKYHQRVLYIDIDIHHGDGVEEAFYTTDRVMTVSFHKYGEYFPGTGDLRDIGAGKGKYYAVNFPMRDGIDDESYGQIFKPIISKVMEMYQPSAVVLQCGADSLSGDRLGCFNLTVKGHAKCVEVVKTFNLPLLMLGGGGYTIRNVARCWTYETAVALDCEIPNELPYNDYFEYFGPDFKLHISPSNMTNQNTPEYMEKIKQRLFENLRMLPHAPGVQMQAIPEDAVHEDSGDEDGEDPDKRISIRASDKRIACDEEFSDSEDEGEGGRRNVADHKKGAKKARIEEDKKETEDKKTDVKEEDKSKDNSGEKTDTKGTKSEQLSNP
pIC50: −log10 of the molar value.
Value Kind: pIC50

• O=C(/C=C/c1ccc(C(=O)NCCOc2no[n+]([O-])c2S(=O)(=O)c2ccccc2)cc1)NO = 6.80

###

target: Histone deacetylase; format: cell-based, Homo sapiens; settings: hela
Reported IC50 is given for each of the following molecules.
Value Kind: IC50 (nM)

- COc1ccc(-c2nc(C(=O)N(CCN(C)C)Cc3ccc(C(=O)NO)cc3)cc3c2[nH]c2ccccc23)cc1: 92
- CCCN(Cc1ccc(C(=O)NO)cc1)C(=O)c1cc2c([nH]c3ccccc32)c(-c2ccc(OC)cc2)n1: 260
- CCN(CC)CCN(Cc1ccc(C(=O)NO)cc1)C(=O)c1cc2c([nH]c3ccccc32)c(-c2ccc(OC)cc2)n1: 120

###

target: Histone deacetylase 1 (Homo sapiens, UniProt Q13547); assay: Inhibition of HDAC1 (unknown origin) using (FAM)-labeled acetylated peptide as substrate measured after 17 hrs by fluorescence assay
Sequence (Q13547 whole entry): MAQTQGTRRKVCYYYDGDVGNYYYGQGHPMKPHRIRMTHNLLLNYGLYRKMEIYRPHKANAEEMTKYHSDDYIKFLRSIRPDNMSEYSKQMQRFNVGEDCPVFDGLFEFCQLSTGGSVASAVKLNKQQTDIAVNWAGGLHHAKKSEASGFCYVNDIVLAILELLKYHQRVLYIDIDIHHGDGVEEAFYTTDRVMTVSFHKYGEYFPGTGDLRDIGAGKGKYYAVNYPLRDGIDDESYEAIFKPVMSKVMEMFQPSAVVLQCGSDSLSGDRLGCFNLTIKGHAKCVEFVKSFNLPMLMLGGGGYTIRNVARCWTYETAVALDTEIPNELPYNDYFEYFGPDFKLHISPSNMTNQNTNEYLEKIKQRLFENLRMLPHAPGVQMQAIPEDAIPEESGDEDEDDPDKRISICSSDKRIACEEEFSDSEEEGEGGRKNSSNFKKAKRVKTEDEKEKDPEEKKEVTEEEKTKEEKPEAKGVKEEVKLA
Entries and their IC50
Value Kind: IC50

- Nc1ccccc1NC(=O)CCCCCCC(=O)Nc1ccc(-c2cn(Cc3ccccc3)nn2)cc1: > 30 µM
- Nc1cccc(-c2csc(NC(=O)CCCCCCC(=O)Nc3ccccc3N)n2)c1: 2.49 µM
- Nc1ccccc1NC(=O)CCCCCCC(=O)Nc1cccc(-c2cn(-c3ccccc3)nn2)c1: > 30 µM

###

Property: histone acetylation relative to SAHA; scope: individual compounds
biological target: Histone deacetylase (Homo sapiens) (UniProt Q13547+O15379+Q9UBN7+Q92769+Q9UQL6+Q8WUI4+Q9BY41+Q96DB2+P56524+Q9UKV0+Q969S8); experiment: Inhibition of HDAC in human K562 cells assessed as increase in histone acetylation levels at 500 nM after 3 hrs by FACS analysis relative to SAHA; format: cell-based
Value Kind: histone acetylation relative to SAHA (%)

* COc1ccc(-c2cn(CCCCCCC(=O)NO)nn2)cc1 | 85
* O=C(CCCCCCn1cc(-c2ccc(Oc3ccccc3)cc2)nn1)NO | 53
* O=C(CCCCCn1cc(-c2ccccc2)nn1)NO | 48
* O=C(CCCCCCn1cc(-c2ccccc2)nn1)NO | 108

###

Entries annotated with measured IC50
target: Histone deacetylase 4 (Homo sapiens); experiment: Inhibition of human HDAC4 using fluorogenic HDAC substrate
Sequence (P56524 whole entry): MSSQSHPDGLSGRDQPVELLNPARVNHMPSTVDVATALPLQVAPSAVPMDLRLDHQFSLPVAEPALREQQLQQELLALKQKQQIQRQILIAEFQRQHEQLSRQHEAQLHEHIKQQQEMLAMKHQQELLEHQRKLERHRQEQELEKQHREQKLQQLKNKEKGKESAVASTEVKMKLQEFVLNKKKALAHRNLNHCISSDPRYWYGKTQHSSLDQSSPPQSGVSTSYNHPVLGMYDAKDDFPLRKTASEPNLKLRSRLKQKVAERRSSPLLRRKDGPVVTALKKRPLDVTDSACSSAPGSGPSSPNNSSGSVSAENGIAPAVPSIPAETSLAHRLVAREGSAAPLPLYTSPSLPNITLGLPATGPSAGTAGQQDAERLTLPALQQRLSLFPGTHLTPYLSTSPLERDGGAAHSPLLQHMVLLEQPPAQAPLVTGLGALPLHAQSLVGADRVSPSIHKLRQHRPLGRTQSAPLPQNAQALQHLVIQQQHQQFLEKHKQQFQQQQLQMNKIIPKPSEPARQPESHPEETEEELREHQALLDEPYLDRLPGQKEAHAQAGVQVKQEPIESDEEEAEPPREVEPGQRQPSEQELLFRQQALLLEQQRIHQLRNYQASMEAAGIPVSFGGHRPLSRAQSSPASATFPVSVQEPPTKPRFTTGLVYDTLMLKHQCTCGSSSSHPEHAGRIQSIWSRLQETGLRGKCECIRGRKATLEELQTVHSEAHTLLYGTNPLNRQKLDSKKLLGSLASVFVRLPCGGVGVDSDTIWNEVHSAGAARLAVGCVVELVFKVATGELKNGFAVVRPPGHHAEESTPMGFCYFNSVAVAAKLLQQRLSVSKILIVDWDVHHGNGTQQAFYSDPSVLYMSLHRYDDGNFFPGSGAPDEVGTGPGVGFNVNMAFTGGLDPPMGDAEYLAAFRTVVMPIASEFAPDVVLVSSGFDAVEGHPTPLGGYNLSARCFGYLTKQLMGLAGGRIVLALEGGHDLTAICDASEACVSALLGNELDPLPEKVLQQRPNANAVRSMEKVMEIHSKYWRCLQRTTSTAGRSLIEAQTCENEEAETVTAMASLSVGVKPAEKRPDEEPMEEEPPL
Value Kind: IC50

• O=C(NO)c1ccc(Cn2c3c(c4cc(F)ccc42)C[S+]([O-])CC3)cc1 (stereo unspecified) = 1.2 µM
• O=C(NO)c1ccc(CN2c3ccccc3C[C@@H]3CCCCC[C@H]32)cc1 = > 30 µM
• O=C(NO)c1ccc(CN2c3ccccc3CC[C@@H]3CCCC[C@H]32)cc1 = > 30 µM
• O=C(NO)c1ccc(CN2c3ccccc3C3C2CCS3(=O)=O)cc1 (stereo unspecified) = 0.6 µM
• O=C(NO)c1ccc(CN2c3ccccc3C[C@@H]3CCCC[C@H]32)cc1 = > 30 µM
• O=C(NO)c1ccc(CN2c3ccccc3CCC[C@@H]3CCCC[C@H]32)cc1 = > 30 µM

###

target: UniProt O15379; test: Inhibition of human HDAC3 using fluorogenic HDAC substrate
Sequence (O15379 whole entry): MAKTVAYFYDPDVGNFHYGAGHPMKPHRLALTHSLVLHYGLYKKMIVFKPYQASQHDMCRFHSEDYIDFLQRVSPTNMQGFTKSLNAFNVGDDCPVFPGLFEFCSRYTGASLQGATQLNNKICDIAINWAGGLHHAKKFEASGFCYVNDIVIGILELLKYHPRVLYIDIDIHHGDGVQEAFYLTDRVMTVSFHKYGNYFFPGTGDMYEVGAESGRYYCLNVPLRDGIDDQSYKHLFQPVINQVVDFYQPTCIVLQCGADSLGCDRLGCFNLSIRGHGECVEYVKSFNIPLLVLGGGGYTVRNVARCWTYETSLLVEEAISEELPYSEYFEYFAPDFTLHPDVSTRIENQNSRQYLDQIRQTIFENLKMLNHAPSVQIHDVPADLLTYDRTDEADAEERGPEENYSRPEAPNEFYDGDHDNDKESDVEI
Value Kind: IC50 (µM)

- O=C(NO)c1ccc(CN2c3cc(C(F)(F)F)ccc3CCC[C@@H]3CCCC[C@H]32)cc1: 18
- O=C(NO)c1ccc(Cn2c3c(c4cc(F)ccc42)CSCC3)cc1: 23
- O=C(NO)c1ccc(CN2c3ccccc3CCC[C@@H]3CCCC[C@H]32)cc1: 24
- O=C(NO)c1ccc(Cn2c3c(c4ccccc42)CS(=O)(=O)CC3)cc1: 29
- O=C(NO)c1ccc(Cn2c3c(c4cc(F)ccc42)CS(=O)(=O)CC3)cc1: 26
- O=C(NO)c1ccc(Cn2c3c(c4cc(F)ccc42)C[S+]([O-])CC3)cc1 (stereo not drawn): 24

###

target: Histone deacetylase 1 (Homo sapiens, UniProt Q13547); assay: Inhibition of human HDAC1 using fluorogenic HDAC substrate
Entries and their measured IC50 follow.
Value Kind: IC50 (µM)

- O=C(NO)c1ccc(CN2c3ccccc3C3C2CCS3(=O)=O)cc1 (configuration not stated): 12
- O=C(NO)c1ccc(Cn2c3c(c4cc(F)ccc42)C[S+]([O-])CC3)cc1 (configuration not stated): 9.4
- O=C(NO)c1ccc(CN2c3ccccc3CC[C@@H]3CCCC[C@H]32)cc1: 4.9
- O=C(NO)c1ccc(CN2c3cc(C(F)(F)F)ccc3CCC[C@@H]3CCCC[C@H]32)cc1: 8.8
- O=C(NO)c1ccc(CN2c3ccccc3CCC[C@@H]3CCCC[C@H]32)cc1: 8.1

###

IC50 reference
target: Protein deacetylase HDAC6 (Mus musculus, UniProt Q9Z2V5); assay: Inhibition of recombinant mouse HDAC6 expressed in HEK293T cells using Ac-KGLGK(Ac)-MCA as substrate measured after 30 mins by fluorescence assay
Sequence (Q9Z2V5 whole entry): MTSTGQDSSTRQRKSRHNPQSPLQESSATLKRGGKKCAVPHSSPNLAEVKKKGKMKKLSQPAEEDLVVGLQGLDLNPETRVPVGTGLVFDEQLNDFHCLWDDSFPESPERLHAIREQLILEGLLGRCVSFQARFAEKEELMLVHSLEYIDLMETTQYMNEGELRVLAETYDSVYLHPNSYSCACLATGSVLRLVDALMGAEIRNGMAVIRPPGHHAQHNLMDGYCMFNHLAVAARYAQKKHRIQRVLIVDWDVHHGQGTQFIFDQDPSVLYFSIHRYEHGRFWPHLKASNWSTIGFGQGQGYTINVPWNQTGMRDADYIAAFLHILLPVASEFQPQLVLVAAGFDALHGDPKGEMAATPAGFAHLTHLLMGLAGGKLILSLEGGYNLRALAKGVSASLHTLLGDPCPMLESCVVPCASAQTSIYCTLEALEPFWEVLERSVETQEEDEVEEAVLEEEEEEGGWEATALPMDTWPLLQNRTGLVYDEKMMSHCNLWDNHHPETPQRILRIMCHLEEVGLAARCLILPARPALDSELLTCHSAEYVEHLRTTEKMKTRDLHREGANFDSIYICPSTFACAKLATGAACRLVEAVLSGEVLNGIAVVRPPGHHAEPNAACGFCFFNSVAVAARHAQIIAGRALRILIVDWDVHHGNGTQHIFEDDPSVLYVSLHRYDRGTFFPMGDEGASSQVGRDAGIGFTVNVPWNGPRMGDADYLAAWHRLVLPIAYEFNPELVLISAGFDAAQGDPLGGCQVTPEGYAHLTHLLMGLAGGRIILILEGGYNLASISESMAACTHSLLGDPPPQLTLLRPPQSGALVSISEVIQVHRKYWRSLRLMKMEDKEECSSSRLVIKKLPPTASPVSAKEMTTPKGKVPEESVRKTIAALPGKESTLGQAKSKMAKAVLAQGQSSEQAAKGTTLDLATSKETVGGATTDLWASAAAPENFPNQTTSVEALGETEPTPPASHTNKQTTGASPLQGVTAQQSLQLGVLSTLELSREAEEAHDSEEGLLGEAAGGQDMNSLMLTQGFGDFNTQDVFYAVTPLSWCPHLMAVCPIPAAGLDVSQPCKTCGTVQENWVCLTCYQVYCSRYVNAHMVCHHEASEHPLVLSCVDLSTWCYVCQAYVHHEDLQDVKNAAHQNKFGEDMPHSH
Value Kind: IC50 (nM)

• O=C(CCCCC[C@@H]1NC(=O)[C@H]2CCCN2C(=O)[C@@H]2CCCCCCCCCCC[C@@H](NC1=O)C(=O)N2)NO = 280
• CC1CCCCC12NC(=O)[C@H](CCCCCC(=O)NO)NC(=O)[C@H]1CCCN1C(=O)[C@H](Cc1ccccc1)NC2=O (stereo not given in full) = 130
• CC1CCCC2(C1)NC(=O)[C@H](CCCCCC(=O)NO)NC(=O)[C@H]1CCCN1C(=O)[C@H](Cc1ccccc1)NC2=O (stereo not given in full) = 160

###

system: HCT-116; test: cells; format: functional, cell-based; conditions: Homo sapiens, HCT-116, 72 h
pIC50: −log10 of the molar value.
Here the recorded pIC50 is given for each entry.
Value Kind: pIC50

- O=C(CCCCCCn1cc(-c2ccc(Oc3ccccc3)cc2)nn1)NO: 5.45
- O=C(CCCCCn1cc(-c2ccccc2)nn1)NO: 5.03
- O=C(CCCCCCn1cc(-c2ccccc2)nn1)NO: 5.86
- COc1ccc(-c2cn(CCCCCCC(=O)NO)nn2)cc1: 5.75

###

molecular target: Histone deacetylase 1 (Homo sapiens, UniProt Q13547); test: Inhibition of HDAC1 (unknown origin) using Ac-peptide as substrate preincubated for 15 mins followed by substrate addition and measured after 60 mins by fluorescence assay
Output class 1 for records whose IC50 is lower than 0.3 µM, class 0 for records at or above 0.3 µM.

- O=C(CCCCCCCOc1ccccc1N1C(=O)CSC1c1cccc(Br)c1)NO (configuration not stated): class 1
- O=C(CCCCCCOc1ccccc1N1C(=O)CSC1c1cccc(Br)c1)NO (configuration not stated): class 1
- COc1ccccc1N1C(=O)CSC1c1cccc(C(=O)NCCCCCC(=O)NO)c1 (configuration not stated): class 1
- O=C(CCCCOc1ccccc1N1C(=O)CSC1c1cccc(Br)c1)NO (configuration not stated): class 0
- O=C(CCCCCC(=O)Nc1ccccc1N1C(=O)CSC1c1cccc(Br)c1)NO (configuration not stated): class 1
- O=C(CCCOc1ccccc1N1C(=O)CSC1c1ccc(Br)s1)NO (configuration not stated): class 1
- O=C(CCCCCCC(=O)Nc1ccccc1N1C(=O)CSC1c1cccc(Br)c1)NO (configuration not stated): class 1
- O=C(CCCOc1ccccc1N1C(=O)CSC1c1cccc(Br)c1)NO (configuration not stated): class 0
- COc1ccccc1N1C(=O)CSC1c1cccc(C(=O)NCCCC(=O)NO)c1 (configuration not stated): class 0
- COc1ccccc1N1C(=O)CSC1c1cccc(NC(=O)CCCCCC(=O)NO)c1 (configuration not stated): class 1
- COc1ccccc1N1C(=O)CSC1c1cccc(NC(=O)CCC(=O)NO)c1 (configuration not stated): class 0
- O=C(CCCCCOc1ccccc1N1C(=O)CSC1c1cccc(Br)c1)NO (configuration not stated): class 1
